- assay_protocol: single intravenous dose-escalation clinical trial, pharmacokinetics
- Format: in vivo
- protocol_conditions: human, blood; healthy adults, single intravenous 80 mg
measurement_type: clearance (mL/min)

>>> test_result("CNCc1cn(S(=O)(=O)c2cccc(F)c2)c(-c2ccc(F)cc2F)c1OC [Fexuprazan]")
567

###

- assay_protocol: oral vs intravenous two-way crossover clinical trial, pharmacokinetics / bioavailability
- Format: in vivo
- protocol_conditions: human, blood; healthy adults, intravenous administration (40 mg), n 8
measurement_type: Cmax (ng/mL)

>>> test_result("CNCc1cn(S(=O)(=O)c2cccc(F)c2)c(-c2ccc(F)cc2F)c1OC")
277

###

- assay_protocol: oral vs intravenous two-way crossover clinical trial, pharmacokinetics / bioavailability
- Format: in vivo
- protocol_conditions: human, blood; healthy adults, oral administration (40 mg)
measurement_type: half-life

>>> test_result("CNCc1cn(S(=O)(=O)c2cccc(F)c2)c(-c2ccc(F)cc2F)c1OC")
"9.38 h"

###

- assay_protocol: pharmacokinetic experiment in male rats (oral and tail vein)
- Assay type: in vivo, rat
- protocol_conditions: rat, plasma, IV 1 mg/kg
measurement_type: half-life (h)

>>> test_result("CNCc1cn(S(=O)(=O)c2cccc(F)c2)c(-c2ccc(F)cc2F)c1OC")
2.06

###

- assay_protocol: single intravenous dose-escalation clinical trial, pharmacokinetics
- Format: in vivo
- protocol_conditions: human, blood; healthy adults, single intravenous 20 mg (N = 6)
measurement_type: Cmax (ng/mL)

>>> test_result("CNCc1cn(S(=O)(=O)c2cccc(F)c2)c(-c2ccc(F)cc2F)c1OC")
185

###

- assay_protocol: pharmacokinetic experiment in male rats (oral and tail vein)
- Format: in vivo, rat
- protocol_conditions: rat, plasma, IV 1 mg/kg
measurement_type: Vd

>>> test_result("CNCc1cn(S(=O)(=O)c2cccc(F)c2)c(-c2ccc(F)cc2F)c1OC")
"20.2 L/kg"

###

- assay_protocol: oral vs intravenous two-way crossover clinical trial, pharmacokinetics / bioavailability
- Assay type: in vivo
- protocol_conditions: human, blood; healthy adults, oral administration (40 mg)
measurement_type: Tmax

>>> test_result("CNCc1cn(S(=O)(=O)c2cccc(F)c2)c(-c2ccc(F)cc2F)c1OC [Fexuprazan]")
"2.09 h"

###

- assay_protocol: single intravenous dose-escalation clinical trial, pharmacokinetics
- Format: in vivo
- protocol_conditions: human, blood; healthy adults, single intravenous 80 mg (N = 6)
measurement_type: Cmax (ng/mL)

>>> test_result("CNCc1cn(S(=O)(=O)c2cccc(F)c2)c(-c2ccc(F)cc2F)c1OC [Fexuprazan]")
633

###

- assay_protocol: single intravenous dose-escalation clinical trial, pharmacokinetics
- Assay type: in vivo
- protocol_conditions: human, blood; healthy adults, single intravenous 40 mg
measurement_type: half-life

>>> test_result("CNCc1cn(S(=O)(=O)c2cccc(F)c2)c(-c2ccc(F)cc2F)c1OC [Fexuprazan]")
"8.84 h"
